Target or system UniProt:P39900: recorded pIC50 listed per item.
Sequence (P39900 whole entry): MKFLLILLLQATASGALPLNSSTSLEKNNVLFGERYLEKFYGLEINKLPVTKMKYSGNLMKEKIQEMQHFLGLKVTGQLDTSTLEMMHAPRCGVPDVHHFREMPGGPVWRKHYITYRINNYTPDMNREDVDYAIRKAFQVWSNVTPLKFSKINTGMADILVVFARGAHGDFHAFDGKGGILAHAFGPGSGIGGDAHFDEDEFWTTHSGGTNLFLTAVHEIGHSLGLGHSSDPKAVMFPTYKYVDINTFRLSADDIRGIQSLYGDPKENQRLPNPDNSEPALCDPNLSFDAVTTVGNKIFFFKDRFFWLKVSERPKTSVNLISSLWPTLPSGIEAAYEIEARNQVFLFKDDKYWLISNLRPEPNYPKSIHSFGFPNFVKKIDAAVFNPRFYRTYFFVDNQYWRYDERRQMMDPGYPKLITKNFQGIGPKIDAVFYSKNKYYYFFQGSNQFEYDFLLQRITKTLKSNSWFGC
pIC50: −log10 of the molar value.

Example entries and their recorded answers appear below.
TEST SMILES: Nc1nc2c(-c3cc(-c4ccccc4)c(Br)[nH]3)nccc2[nH]1
pIC50: 4.73
//
TEST SMILES: Nc1nc2c(-c3[nH]c(Br)c(Cc4ccccc4)c3Br)nccc2[nH]1
pIC50: < 4.00
//
TEST SMILES: Nc1nc2c(-c3cc(CCCc4ccccc4)c(Br)[nH]3)nccc2[nH]1
pIC50: < 4.00
//
TEST SMILES: Nc1nc2c(-c3cc(Br)c(-c4ccccc4)[nH]3)nccc2[nH]1
pIC50: < 4.00
//
TEST SMILES: Nc1nc2c(-c3[nH]c(Br)c(Br)c3CCc3ccccc3)nccc2[nH]1
pIC50: < 4.00

For each listed entry, give its pIC50.
1. Nc1nc2c(-c3[nH]c(Br)c(CCc4ccccc4C(F)(F)F)c3Br)nccc2[nH]1
2. Nc1nc2c(-c3[nH]c(Br)c(CCc4ccccc4)c3Br)nccc2[nH]1
3. Nc1nc2c(-c3cc(Br)c[nH]3)nccc2[nH]1
4. Nc1nc2c(-c3cc(Br)c(-c4cccc(-c5ccccc5)c4)[nH]3)nccc2[nH]1

output:
1. < 4.00
2. 5.52
3. < 4.00
4. < 4.00
